# target.entity: Serine/threonine-protein kinase pim-2 (Homo sapiens) (UniProt Q9P1W9);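 also: reported value is the mean percent inhibition of PIM2, measured in the GSK PKIS kinase inhibitor set screen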
# Sequence (Q9P1W9 whole entry, looked up): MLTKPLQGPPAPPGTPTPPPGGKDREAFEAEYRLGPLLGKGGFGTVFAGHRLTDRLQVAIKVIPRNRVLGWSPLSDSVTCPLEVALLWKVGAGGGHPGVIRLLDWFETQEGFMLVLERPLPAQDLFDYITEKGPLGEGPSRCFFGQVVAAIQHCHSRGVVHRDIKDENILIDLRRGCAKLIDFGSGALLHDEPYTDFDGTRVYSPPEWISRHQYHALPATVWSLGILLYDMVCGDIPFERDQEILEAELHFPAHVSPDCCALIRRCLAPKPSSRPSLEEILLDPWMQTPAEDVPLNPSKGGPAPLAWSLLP
# recorded.conditions: at 0.1 µM

smiles.structure	inhibition (%)
O=C1Nc2ccc(-c3cccnc3)cc2C1=Cc1cc(Br)c(O)c(Br)c1	8.09
Cc1ccc(Nc2ccnc(Nc3cccc(C(N)=O)c3)n2)cc1O	-4.07
Cc1cc(Cl)cc2c1NC(=O)C2=NNc1ccc(S(N)(=O)=O)cc1	-0.12
NS(=O)(=O)c1cccc(Nc2cc(-c3ccc(F)cc3)n[nH]2)c1	0.15
NS(=O)(=O)c1cccc(-c2cc3ccncc3cc2OCc2ccccc2)c1	0.27
COC(=O)c1cncc(/C=C/c2c(C)cc(O)cc2C)c1	-0.56
COC(=O)c1ccc2c(c1)C(=Cc1cc(Br)c(O)c(Br)c1)C(=O)N2	10.7
c1ccc(Cc2nc3ccc(Nc4ncnc5ccccc45)cc3[nH]2)cc1	-0.72
O=C1Nc2ccccc2/C1=C/Nc1ccc2[nH]c(=O)[nH]c2c1	0.27
Cc1ccc(NC(=O)CC2CC2)cc1-c1ccc(C(=O)NCC2CC2)cc1	-0.33
CCn1c(-c2nonc2N)nc2ccc(F)cc21	-0.12

---

# target.entity: Activated CDC42 kinase 1 (Homo sapiens) (UniProt Q07912);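 also: values are mean inhibition of TNK2, from the GSK PKIS screening dataset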
# Sequence (Q07912 whole entry, looked up): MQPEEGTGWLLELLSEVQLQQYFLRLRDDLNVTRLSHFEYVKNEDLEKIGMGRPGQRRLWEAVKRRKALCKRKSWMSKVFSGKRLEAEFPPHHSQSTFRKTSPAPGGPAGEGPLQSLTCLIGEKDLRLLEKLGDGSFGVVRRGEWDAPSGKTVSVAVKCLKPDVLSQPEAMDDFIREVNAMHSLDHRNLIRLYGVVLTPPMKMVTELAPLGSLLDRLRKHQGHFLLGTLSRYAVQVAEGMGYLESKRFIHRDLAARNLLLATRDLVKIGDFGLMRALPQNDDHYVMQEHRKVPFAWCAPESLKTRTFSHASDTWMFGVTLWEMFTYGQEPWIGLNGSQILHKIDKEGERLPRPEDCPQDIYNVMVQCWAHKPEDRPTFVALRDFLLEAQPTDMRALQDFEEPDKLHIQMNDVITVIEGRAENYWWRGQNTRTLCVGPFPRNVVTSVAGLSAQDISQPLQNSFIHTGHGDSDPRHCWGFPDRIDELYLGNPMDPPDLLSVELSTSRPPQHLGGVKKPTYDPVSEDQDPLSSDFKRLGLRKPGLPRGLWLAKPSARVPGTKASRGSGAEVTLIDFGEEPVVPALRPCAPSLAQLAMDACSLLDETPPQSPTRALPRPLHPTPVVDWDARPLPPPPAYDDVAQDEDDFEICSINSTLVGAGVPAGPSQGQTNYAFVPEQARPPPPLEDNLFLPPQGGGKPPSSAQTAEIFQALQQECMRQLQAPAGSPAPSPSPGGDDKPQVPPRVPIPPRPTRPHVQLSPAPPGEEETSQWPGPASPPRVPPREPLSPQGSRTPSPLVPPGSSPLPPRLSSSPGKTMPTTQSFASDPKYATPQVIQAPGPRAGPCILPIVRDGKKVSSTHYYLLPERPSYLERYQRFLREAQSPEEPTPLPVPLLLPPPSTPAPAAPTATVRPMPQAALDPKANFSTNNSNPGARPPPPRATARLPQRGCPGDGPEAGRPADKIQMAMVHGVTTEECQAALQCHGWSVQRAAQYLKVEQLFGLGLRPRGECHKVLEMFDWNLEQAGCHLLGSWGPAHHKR
# recorded.conditions: at 0.1 µM

smiles.structure	unit.abbreviation	inhibition
NS(=O)(=O)c1ccc(Nc2cc(-c3cccc(O)c3)n[nH]2)cc1	%	1.36
OCc1ccc(-c2nc(-c3ccccn3)c(-c3ccc4c(c3)OCO4)[nH]2)cc1	%	1.72
CN(c1ccc(NC(=O)Nc2ccc(OC(F)(F)F)cc2)cc1)c1ccnc(Nc2cccc(S(N)(=O)=O)c2)n1	%	0.67
FC(F)(F)c1ccc(-c2nn3ncccc3c2-c2ccnc(Nc3ccc4c(c3)OCCO4)n2)cc1	%	6.74
COc1ccc(-c2nn3ncccc3c2-c2ccnc(Nc3cccc(C(F)(F)F)c3)n2)cc1	%	0.73
Cc1nc(-c2ccccc2)n2nc(NCCCN3CCOCC3)ncc12	%	0.58
Cc1ccc(Nc2ccnc(Nc3cccc(C(N)=O)c3)n2)cc1O	%	3.73
Cc1ccc(C(=O)NC2CC2)cc1-c1ccc2[nH]ncc2c1	%	-0.76
COC(=O)c1ccc2c(c1)C(=Cc1cc(Br)c(O)c(Br)c1)C(=O)N2	%	0.88
O=C1Nc2ccccc2/C1=C/Nc1ccc2[nH]c(=O)[nH]c2c1	%	1.41

---

# target.entity: Casein kinase II subunit alpha (Homo sapiens)
# recorded.conditions: at 0.1 µM
# Description: GSK_PKIS: CK2 mean inhibition at 0.1 uM [Nanosyn]
Reported values of inhibition for individual entries

smiles.structure	inhibition / %
COc1cc2ncn(-c3cc(OCc4ccccc4S(C)(=O)=O)c(C#N)s3)c2cc1OC	2.39
CC(C)c1ccc(Nc2nccc(-c3cnn4ncccc34)n2)cc1	10.7
Cc1ccc2c(-c3ccnc(Nc4cccc(C(F)(F)F)c4)n3)c(-c3ccccc3)nn2n1	1.2
O=C1Nc2ccc(-c3cccnc3)cc2C1=Cc1cc(Br)c(O)c(Br)c1	4.96
c1ccc(Cc2nc3ccc(Nc4ncnc5ccccc45)cc3[nH]2)cc1	3.02
CN(c1ccc(NC(=O)Nc2ccc(OC(F)(F)F)cc2)cc1)c1ccnc(Nc2cccc(S(N)(=O)=O)c2)n1	2.7
COC(=O)Nc1nc2cc(Oc3ccc(NC(=O)Nc4cccc(Br)c4)cc3)ccc2[nH]1	2.56
Cc1cc(-c2ccccn2)cc(C)c1/C=C/c1cncc(-c2nn[nH]n2)c1	7.89
c1ccc(Nc2ncc(-c3ccccc3)o2)cc1	8.1
NS(=O)(=O)c1ccc(NC=C2C(=O)Nc3ccc4ncsc4c32)cc1	15.7
COc1cccc(-n2ncc3c(N/N=C/c4ccc(S(C)(=O)=O)cc4)ncnc32)c1	23.1
C[C@@H](Oc1cc(-n2cnc3ccc(OCC4CCN(C)CC4)cc32)sc1C(N)=O)c1ccccc1C(F)(F)F	6.68
Cc1cc(Cl)cc2c1NC(=O)C2=NNc1ccc(S(N)(=O)=O)cc1	3.02
CCn1c(-c2nonc2N)nc2c(C#CC(C)(C)O)nc(OCCNC)cc21	3.96
CC(C)c1ccc2c(c1)NC(=O)/C2=N/Nc1ccc(S(N)(=O)=O)cc1	4.26
Cc1nc(-c2ccccc2)n2nc(NCCCN3CCOCC3)ncc12	13.3
CN(C)C(=O)O[C@@H]1CN[C@@H](C#Cc2cc3ncnc(Nc4ccc(OCc5cccc(F)c5)c(Cl)c4)c3s2)C1	-1.08
COc1cccc(-n2nc(C)c3c(N/N=C(\C)c4ccncc4)ncnc32)c1	2.16
Nc1nccc(-c2c(-c3ccc(F)cc3)ncn2CCCN2CCOCC2)n1	2.78
N#Cc1c(NC(=O)c2ccccc2F)sc2c1CCCC2	2.62
ON=C1CCc2cc(-c3nc(C4CCNCC4)[nH]c3-c3ccncc3)ccc21	-3.67
